- test: Pharmacokinetic determination in SD rats
- settings: rat, in vivo, po; male SD rats, p.o. 5 mg/kg; read-out: MRT 0-∞
Catalogue of MRT inf values

compound: Cc1c2c(c3ncnn3c1C)CN(C(=O)CC1CN(c3ncc(C(F)(F)F)cn3)C1)C2 [Example 144]
output_unit: h
MRT inf: 4.6

compound: CCOc1ccc(N2CC(CC(=O)N3Cc4c(C)c(C)n5ncnc5c4C3)C2)cn1 [Example 304]
output_unit: h
MRT inf: 1.32

compound: COc1cc(N2CC(OC(=O)N3Cc4c(C)c(C)n5ncnc5c4C3)C2)ccn1 [Example 182]
output_unit: h
MRT inf: 2.8

compound: Cc1c2c(c3ncnn3c1C)CN(C(=O)OC1CN(c3ccnc(C(F)F)c3)C1)C2 [Example 122]
output_unit: h
MRT inf: 5.8

* * *

- system_tested: M4 receptor (Homo sapiens)
- Construct: expressed in transfected cells
- test: Calcium flux (FLIPR) potentiation assay in cells stably expressing M4 receptor
- Assay type: cell-based
- settings: CHO-K1/M4/Gα15 cells; potentiation of acetylcholine (EC20) calcium flux; read-out: M4 FLIPR EC50

compound: Cc1c2c(c3ncnn3c1C)CN(C(=O)CC1CN(c3ccc(S(=O)(=O)C(F)F)cc3)C1)C2 [Example 25]
EC50 / µM: 0.0095
--
compound: Cc1c2c(c3nccn3c1C)CN(C(=O)CC1CN(c3ccnc(C(F)F)c3)C1)C2 [Example 101]
EC50 / µM: 0.0335
--
compound: Cc1c2c(c3ncnn3c1C)CN(C(=O)CC1CN(c3cnc4c(c3)CCCO4)C1)C2 [Example 302]
EC50 / µM: 0.0232
--
compound: Cc1c2c(c3ccnn3c1C)CN(C(=O)CC1CN(c3ccc4nc(C(F)(F)F)cn4n3)C1)C2 [Example 227]
EC50 / µM: 0.0904

* * *

- system_tested: M4 receptor (Homo sapiens, UniProt P08173)
- Construct: expressed in transfected cells
- test: Calcium flux (FLIPR) potentiation assay in cells stably expressing M4 receptor
- Type: cell-based
- settings: CHO-K1/M4/Gα15 cells; potentiation of acetylcholine (EC20) calcium flux; read-out: M4 FLIPR EC50
measured_endpoint: log10 of EC50 (log10 of the value in µM)

compound: Cc1c2c(c3ccnn3c1C)CN(C(=O)CC1CN(c3ccnc(OCC(F)F)c3)C1)C2
log10 of EC50: -1.05
--
compound: Cc1c2c(n3ncnc3c1Cl)CN(C(=O)CC1CN(c3ccnc(C(F)(F)F)c3)C1)C2
log10 of EC50: -1.00
--
compound: Cc1c2c(c3ncnn3c1C)CN(C(=O)CC1CN(c3ccnc(OCC(F)F)c3)C1)C2
log10 of EC50: -1.95
--
compound: Cc1cn2nc(N3CC(CC(=O)N4Cc5c(C)c(C)n6nccc6c5C4)C3)ccc2n1
log10 of EC50: -1.25
--
compound: Cc1c2c(c3ncnn3c1C)CN(C(=O)CC1CN(c3cnc4c(c3)COC4)C1)C2
log10 of EC50: -1.63
--
compound: CCn1ccc2cc(N3CC(CC(=O)N4Cc5c(C)c(C)n6ncnc6c5C4)C3)ccc21
log10 of EC50: -1.04
--
compound: Cc1c2c(c3nccn3c1C)CN(C(=O)OC1CN(c3ccnc(C(F)(F)F)c3)C1)C2
log10 of EC50: -1.14
--
compound: CN=S(C)(=O)c1ccc(N2CC(CC(=O)N3Cc4c(C)c(C)n5ncnc5c4C3)C2)cc1 (stereo not shown)
log10 of EC50: -1.42
--
compound: Cc1c2c(c3ncnn3c1C)CN(C(=O)C1CCN(c3ccncn3)C1)C2 (stereo not shown)
log10 of EC50: -1.39
--
compound: Cc1c2c(c3ncnn3c1C)CN(C(=O)CC1CN(c3ccc4nc(C(F)(F)F)cn4n3)C1)C2
log10 of EC50: -1.91
--
compound: Cc1c2c(c3ncnn3c1C)CN(C(=O)OC1CN(c3ccc4nc(C(F)F)cn4n3)C1)C2
log10 of EC50: -1.51
--
compound: Cc1nc2c3c(c(C)c(C)n2n1)CN(C(=O)[C@@H]1CCN(c2ccncn2)C1)C3
log10 of EC50: -1.44
--
compound: COc1cc(N2CC(CC(=O)N3Cc4c(C)c(C)n5ncnc5c4C3)C2)c(Cl)cn1
log10 of EC50: -1.39
--
compound: CCNc1nccc(N2CC(CC(=O)N3Cc4c(C)c(C)n5ncnc5c4C3)C2)n1
log10 of EC50: -2.10
--
compound: Cc1c2c(c3ncnn3c1C)CN(C(=O)CC1CN(c3ccc(OC4CC4)nc3)C1)C2
log10 of EC50: -1.86
--
compound: Cc1c2c(c3ccnn3c1C)CN(C(=O)CC1CN(c3ccnc(C(F)F)c3)C1)C2
log10 of EC50: -1.37
--
compound: Cc1cn2nc(N3CC(OC(=O)N4Cc5c(C)c(C)n6nccc6c5C4)C3)ccc2n1
log10 of EC50: -1.40
--
compound: Cc1c2c(c3ncnn3c1C)CN(C(=O)CC1CN(c3ccc4nc(C(F)F)cn4n3)C1)C2
log10 of EC50: -1.88
--
compound: COc1ccc(N2CC(CC(=O)N3Cc4c(C)c(C)n5ncnc5c4C3)C2)cn1
log10 of EC50: -1.32
--
compound: Cc1c2c(c3ncnn3c1C)CN(C(=O)CC1CN(c3cc(Cl)ncc3Cl)C1)C2
log10 of EC50: -1.91
--
compound: Cc1c2c(c3ncnn3c1C)CN(C(=O)C1CC(Nc3ccnc(C(F)(F)F)c3)C1)C2 (stereo not shown) [Example 284-P2]
log10 of EC50: -1.22
--
compound: COc1cc(N2CC(CC(=O)N3Cc4c(C)c(C)n5ncnc5c4C3)C2)ccn1
log10 of EC50: -1.31
--
compound: CCOc1ccc(N2CC(CC(=O)N3Cc4c(C)c(C)n5ncnc5c4C3)C2)cn1
log10 of EC50: -1.57
--
compound: Cc1nc2c3c(c(C)c(C)n2n1)CN(C(=O)C1CCN(c2ccncn2)C1)C3 (stereo not shown)
log10 of EC50: -1.29
--
compound: Cc1nc2c3c(c(C)c(C)n2n1)CN(C(=O)CC1CN(c2ccnc(OC4CC4)c2)C1)C3
log10 of EC50: -1.79
--
compound: Cc1c2c(c3ncnn3c1C)CN(C(=O)C1CC(Nc3ncc(C(F)(F)F)cn3)C1)C2 (stereo not shown)
log10 of EC50: -1.57
--
compound: COc1nccc(N2CC(OC(=O)N3Cc4c(C)c(C)n5ncnc5c4C3)C2)n1
log10 of EC50: -1.37
--
compound: Cc1c2c(c3nccn3c1C)CN(C(=O)OC1CN(c3ccnc(OC(F)F)c3)C1)C2
log10 of EC50: -1.06

* * *

- test: Pharmacokinetic determination in SD rats
- settings: rat, in vivo, po; male SD rats, p.o. 5 mg/kg
measured_endpoint: Tmax

mol_smiles: Cc1c2c(c3nccn3c1C)CN(C(=O)OC1CN(c3ccnc(C(F)F)c3)C1)C2
recorded_value: 30 min
--
mol_smiles: Cc1c2c(n3ncnc3c1Cl)CN(C(=O)CC1CN(c3ncc(F)cn3)C1)C2
recorded_value: 60 min
--
mol_smiles: Cc1c2c(c3ncnn3c1C)CN(C(=O)CC1CN(c3cnc4c(c3)COC4)C1)C2
recorded_value: 49.8 min

* * *

pEC50 by entry:
- system_tested: M4 receptor (Homo sapiens, UniProt P08173)
- Construct: expressed in transfected cells
- Sequence (P08173 1-479): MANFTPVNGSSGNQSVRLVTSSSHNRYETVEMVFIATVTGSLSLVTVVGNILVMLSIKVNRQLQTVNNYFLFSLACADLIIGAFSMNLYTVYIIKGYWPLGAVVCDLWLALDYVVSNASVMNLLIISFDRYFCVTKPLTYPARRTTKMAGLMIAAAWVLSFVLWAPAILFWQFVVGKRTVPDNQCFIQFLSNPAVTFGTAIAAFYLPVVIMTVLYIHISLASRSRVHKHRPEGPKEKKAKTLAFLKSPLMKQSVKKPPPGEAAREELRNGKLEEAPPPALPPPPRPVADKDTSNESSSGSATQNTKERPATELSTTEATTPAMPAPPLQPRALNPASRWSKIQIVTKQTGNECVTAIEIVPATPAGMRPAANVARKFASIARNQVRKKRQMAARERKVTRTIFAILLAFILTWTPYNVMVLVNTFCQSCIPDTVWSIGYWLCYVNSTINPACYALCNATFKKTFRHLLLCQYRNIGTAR
- test: Calcium flux (FLIPR) potentiation assay in cells stably expressing M4 receptor
- Format: cell-based
pEC50: −log10 of the molar value.

compound: CCn1ncc2cc(N3CC(CC(=O)N4Cc5c(C)c(C)n6ncnc6c5C4)C3)ccc21
system_tested: M4 receptor (Homo sapiens, UniProt P08173)
pEC50: 7.77
--
compound: Cc1c2c(c3ncnn3c1C)CN(C(=O)OC1CN(c3cc(Cl)ncc3Cl)C1)C2
system_tested: M4 receptor (Homo sapiens, UniProt P08173)
pEC50: 7.55
--
compound: Cc1c2c(c3nccn3c1C)CN(C(=O)CC1CC1c1ccc(F)nc1)C2 (stereo not shown)
system_tested: M4 receptor (Homo sapiens, UniProt P08173)
pEC50: 7.27
--
compound: Cc1c2c(c3ncnn3c1C)CN(C(=O)CC1CN(c3ncc(F)cc3F)C1)C2
system_tested: M4 receptor (Homo sapiens, UniProt P08173)
pEC50: 7.91
